- Test system: HepG2 cells
- test: HepG2 cytotoxicity assay
- Format: cell-based
- reported conditions: mean
compounds and their reported HepG2 cells mean TOX50
Response body: numeric value in µM, unit text excluded.

[
  {
    "compound": "COc1cc(CNCCCCCCNCc2cc(OC)c3ccccc3c2OC)c(OC)c2ccccc12.CS(=O)(=O)O",
    "HepG2 cells mean TOX50, µM": 3.67
  },
  {
    "compound": "CC1CCCCN1CCCNc1nc(NCc2ccccc2)c2ccccc2n1 (stereo not shown)",
    "HepG2 cells mean TOX50, µM": 14.62
  },
  {
    "compound": "Nc1ccc2[nH]cc(C3CCN(CCC4CCN(C(=O)/C=C/c5ccc(Cl)c(Cl)c5)CC4)CC3)c2n1",
    "HepG2 cells mean TOX50, µM": 8.13
  },
  {
    "compound": "Nc1ccc2[nH]cc(C3CCN(CC4CCC(NC(=O)/C=C/c5ccc(Cl)c(Cl)c5)CC4)CC3)c2n1 (stereo not shown)",
    "HepG2 cells mean TOX50, µM": 12.59
  }
]

Measured HepG2 cells mean TOX50 of O=C(NCCCCN1CCC(c2ccc3c(c2OCCN2CCCC2)CCCC3)CC1)c1ccc(-c2ccc(C(F)(F)F)cc2)cc1 : 5.39

Measured HepG2 cells mean TOX50 of CCCCCCCCN1CCN(CCCCCCNc2c3ccccc3nc3ccccc23)CC1.Cl : 3.35

Measured HepG2 cells mean TOX50 of Cc1ccc(C(=O)Nc2ccc(Nc3ccnc4cc(-c5ccccn5)ccc34)cc2O)cc1.Cl : 1.27

Measured HepG2 cells mean TOX50 of CC(CCCCCC(=O)Nc1ccc(CC(C)NCCc2cccc(Cl)c2)cc1)NCCc1cccc(Cl)c1 (stereo not shown) : 2.55

Measured HepG2 cells mean TOX50 of CC1(C)CC(NCCCCCCCOc2ccc(OCc3ccccc3)cc2)CC(C)(C)N1.Cl : 2.75

Measured HepG2 cells mean TOX50 of Oc1ccc2[nH]cc(C3CCN(CCCNCc4ccc(-c5ccccc5)cc4)CC3)c2c1 : 5.62

Measured HepG2 cells mean TOX50 of Cl.O=C(NCCCCN1CCC(c2ccc3c(c2O)CCCC3)CC1)c1ccc(NC(=O)c2ccc(Cl)cc2)cc1 : 3.80

Measured HepG2 cells mean TOX50 of Clc1ccc(Nc2nc3ccc(Cl)cc3nc2Nc2ccc(Cl)cc2)cc1 : 7.86

Measured HepG2 cells mean TOX50 of Cc1cc(C(F)(F)F)cc(-n2ncc(-c3ccc(C(=O)NCc4ccccc4N)cc3)c2N)n1.O=C(O)C(F)(F)F : 26.82

Measured HepG2 cells mean TOX50 of COc1ccc2c(c1)CC(C)(C)NC2CCCCCCCCC1NC(C)(C)Cc2cc(OC)ccc21.O=C(O)C(=O)O (stereo not shown) : 5.62

Measured HepG2 cells mean TOX50 of CN1CCN(CCCN(Cc2cccc(-c3ccc(CNCCc4ccccc4)cc3)c2)C(=O)c2cccs2)CC1.O=C(O)C(F)(F)F : 5.98

* * *

- Tested on: P. falciparum stage V female gametocytes
- test: P. falciparum female gametocyte activation assay (Pf FGAA), 24 h or 48 h preincubation, Pfs25 expression readout
- Type: cell-based, Plasmodium falciparum NF54
- reported conditions: Plasmodium falciparum; mean; read-out: Gametocytes mean Pf FGAA IC50
measured endpoint: pIC50
Just so you know, pIC50 here is -log10 of the concentration in molar units; reply with that number alone.

Examples with answers:
[
  {
    "smiles repr": "CN(C)CCCNCc1cn(S(=O)(=O)c2ccccc2Cl)c2ccccc12",
    "experimental target": "P. falciparum stage V female gametocytes",
    "recorded result": 5.74
  },
  {
    "smiles repr": "Cc1ccc(S(=O)(=O)N(CCCNCc2cccc(O)c2)c2ccccc2)cc1",
    "experimental target": "P. falciparum stage V female gametocytes",
    "recorded result": 5.94
  },
  {
    "smiles repr": "CN(C)CCCNCc1ccc(-c2ccc(C(F)(F)F)cc2)cc1",
    "experimental target": "P. falciparum stage V female gametocytes",
    "recorded result": 5.77
  }
]

Measured pIC50 of Clc1ccc(Nc2nc(NCc3ccccc3)nc(N/N=C/c3ccccn3)n2)cc1 : 6.59

* * *

- Test system: HepG2 cells
- test: HepG2 cytotoxicity assay
- Format: cell-based
- reported conditions: mean
measured endpoint: HepG2 cells mean TOX50 (µM)
Response body: numeric value in µM, unit text excluded.

Examples with answers:
[
  {
    "compound": "CC(C)Cn1cc(C2CCN(CCN3CCC(CNC(=O)c4ccc(-c5ccc(C#N)cc5)cc4)CC3)CC2)c2ccccc21",
    "recorded result": 4.79
  },
  {
    "compound": "CCn1c(-c2nonc2N)nc2c(-c3cccc(NC(=O)Nc4cccc(Cl)c4)c3)ncc(OCCCN)c21.O=C(O)C(F)(F)F",
    "recorded result": 80.36
  },
  {
    "compound": "CC(Cc1ccc(OCCCCOc2ccccc2)cc1)NCCC1CCCN1C (stereo not shown)",
    "recorded result": 1.12
  },
  {
    "compound": "Nc1ccc2[nH]cc(C3CCN(CC4CCN(C(=O)/C=C/c5ccc(Cl)c(Cl)c5)CC4)CC3)c2n1",
    "recorded result": 5.89
  },
  {
    "compound": "COc1c(C2CCN(CCN3CCC(CNC(=O)c4ccc(-c5ccc(C#N)cc5)cc4)CC3)CC2)ccc2c1CCCC2",
    "recorded result": 3.43
  }
]

Measured HepG2 cells mean TOX50 of CN(C)CCCOc1ccc(CN2CCC(c3c[nH]c4ccc(NCC5CCCCC5)cc34)CC2)cc1.O=C(O)C(F)(F)F : 5.48

Measured HepG2 cells mean TOX50 of Cl.Clc1ccc(OCCC2CCN(CCCCCCCN3CCC(CCOc4ccc(Cl)c(Cl)c4)CC3)CC2)cc1Cl : 1.64

* * *

- System: P. falciparum stage V female gametocytes
- test: P. falciparum female gametocyte activation assay (Pf FGAA), 24 h or 48 h preincubation, Pfs25 expression readout
- Type: cell-based, Plasmodium falciparum NF54
- reported conditions: P. falciparum female gametocytes; mean; read-out: Gametocytes mean Pf FGAA IC50
measured endpoint: IC50
Output should be the measured figure followed by the unit it is expressed in.

Examples with answers:
[
  {
    "compound": "CCc1c(CCNC/C=C/C=C/CNCCc2ccc(OC)c(OC)c2CC)ccc(OC)c1OC.Cl",
    "recorded result": "2560 nM"
  },
  {
    "compound": "CC(C)c1ccc(CN2CCC(CNC(=O)c3cc(-c4ccc(N(C)C)cc4)cs3)C2)cc1.O=C(O)C(F)(F)F (stereo not drawn)",
    "recorded result": "710 nM"
  },
  {
    "compound": "O=C(NCC1CCN(Cc2cccc(C(F)(F)F)c2)C1)c1cc(-c2cccc(F)c2)cs1.O=C(O)C(F)(F)F (stereo not drawn)",
    "recorded result": "2260 nM"
  },
  {
    "compound": "CN1CCC(NCc2cccc(-c3ccc(S(=O)(=O)NCc4ccccc4)c(F)c3)c2)CC1.O=C(O)C(F)(F)F",
    "recorded result": "2630 nM"
  },
  {
    "compound": "Cc1n[nH]c2ccc(-c3ccc4nccc(N5CCC(N)CC5)c4c3)cc12.Cl",
    "recorded result": "2450 nM"
  }
]

Measured IC50 of [O-][s+]1c(Cl)c(-c2ccc(Cl)cc2)c2ccc(Cl)cc21 (stereo not drawn) : 36.6 nM

Measured IC50 of COc1ccccc1C1CCN(C2CCC(NC(=O)c3ccc4[nH]c(-c5ccc(C)cc5)nc4c3)CC2)CC1 (stereo not drawn) : 2490 nM

Measured IC50 of N#Cc1ccc(-c2ccc(C(=O)NCC3CCN(CCN4CCC(c5ccc6c(c5OCC(N)=O)CCCC6)CC4)CC3)cc2)cc1 : 1260 nM

Measured IC50 of COc1ccc(CCNCCCCCCNCCc2ccc(Cl)c3ccccc23)cc1OC.Cl : 580 nM

Measured IC50 of CC(C)N1CCN(C(CN2CCN(CCCOc3ccc(-c4ccccc4)cc3)CC2)c2ccc(F)cc2)CC1.Cl (stereo not drawn) : 1420 nM

Measured IC50 of CCc1ccccc1-c1csc(C(=O)NCC2CCN(Cc3ccc(C(C)(C)C)cc3)C2)c1.O=C(O)C(F)(F)F (stereo not drawn) : 1200 nM

Measured IC50 of CCOc1ccc2nc3cc(NC(=O)c4ccco4)ccc3c(N)c2c1 : 4550 nM

Measured IC50 of C[C@H](Cc1ccc(C[C@@H](C)NC[C@H](O)c2cccc(Cl)c2)cc1)NC[C@H](O)COc1ccccc1.Cl : 1390 nM

Measured IC50 of CCn1c(-c2nonc2N)nc2c(-c3cc4ccccc4s3)ncc(C(=O)N3CCC(N)C3)c21.O=C(O)C(F)(F)F (stereo not drawn) : 450 nM

Measured IC50 of Cc1ccc2c(c1)c(C1CCN(C(=O)c3ccc([N+](=O)[O-])o3)CC1)cn2C : 2120 nM
